Molecular target: T1, human CD1b expressed on HEK-293 cells (human, UniProt P29016 18-333; P61769 21-119)
T1 construct: also called HEK - CD1b
Experiment: flow cytometry, HEK-293 cells, 1 µg/ml antibody
Provide the recorded Fluorescence Intensity Geomean (normalized to background) for the entries that follow.
One number for each entry, in fold over background.

77A (VR11851) (antibody, V domains shown, also called OX77a; antibody 77a) VH: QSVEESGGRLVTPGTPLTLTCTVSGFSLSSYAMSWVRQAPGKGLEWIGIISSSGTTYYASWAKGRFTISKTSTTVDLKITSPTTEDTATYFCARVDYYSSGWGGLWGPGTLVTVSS VL: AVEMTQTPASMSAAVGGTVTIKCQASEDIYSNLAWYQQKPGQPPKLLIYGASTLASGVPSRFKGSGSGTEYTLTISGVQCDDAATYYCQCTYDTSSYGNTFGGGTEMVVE ... 1.1
116 (VR12117) (antibody, V domains shown, also called OX116) VH: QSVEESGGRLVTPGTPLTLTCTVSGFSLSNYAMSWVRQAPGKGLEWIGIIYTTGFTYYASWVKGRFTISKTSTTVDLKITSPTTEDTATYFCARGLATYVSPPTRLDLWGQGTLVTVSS VL: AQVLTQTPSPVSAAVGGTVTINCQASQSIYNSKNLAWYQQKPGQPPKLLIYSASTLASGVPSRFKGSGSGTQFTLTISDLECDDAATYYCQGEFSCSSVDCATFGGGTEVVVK ... 1.1

// batch mode: one Fluorescence Intensity Geomean (normalized to background) value per listed entry
1. 110 (VR12112) (antibody, V domains shown, also called OX110; antibody 110) VH: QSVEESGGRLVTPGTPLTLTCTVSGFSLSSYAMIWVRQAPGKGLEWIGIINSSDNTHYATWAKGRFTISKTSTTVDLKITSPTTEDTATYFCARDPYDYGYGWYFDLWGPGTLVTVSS VL: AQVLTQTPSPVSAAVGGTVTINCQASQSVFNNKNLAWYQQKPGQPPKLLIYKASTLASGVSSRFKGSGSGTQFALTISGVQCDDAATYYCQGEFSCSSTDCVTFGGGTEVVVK
2. 111 (VR12113) (antibody, V domains shown, also called OX111) VH: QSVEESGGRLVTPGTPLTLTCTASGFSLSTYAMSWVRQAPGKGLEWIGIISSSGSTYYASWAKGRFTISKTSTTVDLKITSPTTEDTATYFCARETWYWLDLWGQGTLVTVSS VL: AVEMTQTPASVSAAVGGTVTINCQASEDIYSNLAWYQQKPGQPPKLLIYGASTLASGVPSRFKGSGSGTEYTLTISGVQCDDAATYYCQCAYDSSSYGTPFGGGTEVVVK

OUTPUT:
[1.1, 1]
